Tested on: primary tumor cells freshly isolated from PC-07-0024 patient derived xenograft (PDX) tumor model
TEST: Pancreatic cancer tumor chemosensitivity assay (TCA), anti-proliferation, PC-07-0024
Type: cell-based
CONDITIONS: Homo sapiens, 144 h, PC-07-0024, Day 6, data exclsn; read-out: Relative IC50
MEASURED_QUANTITY: IC50
Reply with the number, then its unit.

Looking up Nc1ccn([C@@H]2O[C@H](CO)[C@@H](O)C2(F)F)c(=O)n1 [Gemcitabine] , I found its IC50 recorded as 9 nM

====

System: primary tumor cells freshly isolated from PC-07-0024 patient derived xenograft (PDX) tumor model
TEST: Pancreatic cancer tumor chemosensitivity assay (TCA), anti-proliferation, PC-07-0024
Assay type: cell-based
CONDITIONS: Homo sapiens, 72 h, PC-07-0024, Day 3; read-out: Relative IC50
MEASURED_QUANTITY: pIC50
// pIC50 is dimensionless: -log10 of concentration (M)

Looking up Nc1ccn([C@@H]2O[C@H](CO)[C@@H](O)C2(F)F)c(=O)n1 [Gemcitabine] , I found its pIC50 recorded as 5.40
